Reference for the values: ChEMBL document CHEMBL5038609

# measurement.protocol: Plasma protein binding in male Sprague-Dawley rat measured after 2 mins by HPLC analysis
# Format: ADME, cell-free
# measurement.parameters: read-out: PPB (converted)
property.label: fraction unbound at 2 min

In: // fraction unbound at 2 min lookup, key: `CC[C@@]1(O)C(=O)OCc2c1cc1n(c2=O)Cc2c-1nc1cc3c(cc1c2-c1cc[n+](Cc2ccc(O[C@@H]4O[C@@H](C(=O)O)[C@@H](O)[C@H](O)[C@H]4O)c(NC(=O)CCCn4cc(CNC(=O)CCCCCN5C(=O)C=CC5=O)nn4)c2)cc1)OCO3.O=C([O-])C(F)(F)F`
Out: 0.0188

---

# measurement.protocol: Plasma protein binding in female BALB/c mouse measured after 0.25 mins by HPLC analysis
# Type: ADME, cell-free
# measurement.parameters: read-out: PPB (converted)
property.label: fraction unbound at 15 s
The response must contain the number and no unit.

In: // fraction unbound at 15 s lookup, key: `CC[C@@]1(O)C(=O)OCc2c1cc1n(c2=O)Cc2c-1nc1cc3c(cc1c2-c1cc[n+](Cc2ccc(O[C@@H]4O[C@@H](C(=O)O)[C@@H](O)[C@H](O)[C@H]4O)c(NC(=O)CCCn4cc(CNC(=O)CCCCCN5C(=O)C=CC5=O)nn4)c2)cc1)OCO3.O=C([O-])C(F)(F)F`
Out: 0.0723

---

# measurement.protocol: Plasma protein binding in human measured after 2 mins by HPLC analysis
# Assay type: ADME, cell-free
# measurement.parameters: read-out: PPB (converted)
property.label: fraction unbound at 2 min

In: // fraction unbound at 2 min lookup, key: `CC[C@@]1(O)C(=O)OCc2c1cc1n(c2=O)Cc2c-1nc1cc3c(cc1c2-c1cc[n+](Cc2ccc(O[C@@H]4O[C@@H](C(=O)O)[C@@H](O)[C@H](O)[C@H]4O)c(NC(=O)CCCn4cc(CNC(=O)CCCCCN5C(=O)C=CC5=O)nn4)c2)cc1)OCO3.O=C([O-])C(F)(F)F`
Out: 0.0291

---

# measurement.protocol: Plasma protein binding in human measured after 0.25 mins by HPLC analysis
# Assay type: ADME, cell-free
# measurement.parameters: read-out: PPB (converted)
property.label: fraction unbound at 15 s
The response must contain the number and no unit.

In: // fraction unbound at 15 s lookup, key: `CC[C@@]1(O)C(=O)OCc2c1cc1n(c2=O)Cc2c-1nc1cc3c(cc1c2-c1cc[n+](Cc2ccc(O[C@@H]4O[C@@H](C(=O)O)[C@@H](O)[C@H](O)[C@H]4O)c(NC(=O)CCCn4cc(CNC(=O)CCCCCN5C(=O)C=CC5=O)nn4)c2)cc1)OCO3.O=C([O-])C(F)(F)F`
Out: 0.034
